For each entry below, report its Z-AUC value.
- assay_comment: qHTS drug screen for cell cycle checkpoint inhibitors in PARPi-resistant BRCA-mutant ovarian cancer cell lines. (AID 1963452)
- recorded_conditions: PEO1/OlaR viability, CellTiter-Glo luminescence, 96 h; measured here: PEO1 parental Z-AUC; stronger effect = lower value
Where a SMILES comes first, the peptide text is derived from it. [ ]: non-standard residue; d: D form. The star is where a group is joined. Benzoyl(4-tBu) = CC(C)(C)c1ccc(C(=O)*)cc1; Lys(Et2) = CCN(CC)CCCC[C@H](N)C(=O)O
Number only, please.

In one line, give reported Z-AUC of the entry Cn1nccc1Nc1nccc(-c2cc3c(s2)C(C)(C)N(CCN2CCOCC2)C3=O)n1 .
-0.829

In one line, give reported Z-AUC of the entry COC[C@@H](c1ccc(C(F)(F)F)cc1)N1CCN(C2(C)CCN(C(=O)c3c(C)ncnc3C)CC2)C[C@@H]1C .
1.03

In one line, give reported Z-AUC of the entry CS(=O)(=O)c1ccc([C@@H](CC2CCCC2)C(=O)Nc2nccs2)cc1 .
0.607

In one line, give reported Z-AUC of the entry NC(=O)/C(=C/n1cnc(-c2cc(C(F)(F)F)cc(C(F)(F)F)c2)n1)c1cncnc1 .
-2.06

In one line, give reported Z-AUC of the entry CN1C(=O)N(c2cc(Cl)cc(Cl)c2)C(=O)[C@]12CN(Cc1cc(C(=O)O)cs1)C[C@H]2c1ccc(C#N)cc1 .
1.08

In one line, give reported Z-AUC of the entry COc1cc(-c2cn(C)c(=O)c3cnccc23)c(OC)cc1CN(C)C .
-0.655

In one line, give reported Z-AUC of the entry Cc1c(-c2cnccn2)ssc1=S .
0.595

In one line, give reported Z-AUC of the entry O=C([O-])C[O-].[Pt+2] .
1.67

In one line, give reported Z-AUC of the entry COc1cc2c(NC3CCN(C4CCCCC4)CC3)nc(N3CCCN(C(C)C)CC3)nc2cc1OCCCN1CCCCC1 .
1.1

In one line, give reported Z-AUC of the entry CCN(CC)CCCC[C@H](NC(=O)[C@H](CC(C)C)NC(=O)[C@H](C)NC(=O)[C@H](Cc1ccccc1)NC(=O)c1ccc(C(C)(C)C)cc1)C(=O)N[C@@H](CO)C(=O)OC ({Benzoyl(4-tBu)}-FAL[Lys(Et2)]S-OMe) .
0.227

In one line, give reported Z-AUC of the entry Nc1nccc(-c2c(-c3ccc(F)cc3)ncn2C2CCN(Cc3ccon3)CC2)n1 .
0.6

In one line, give reported Z-AUC of the entry CN1C(=O)N[C@H](Cc2c[nH]c3c(Cl)cccc23)C1=O .
0.688

In one line, give reported Z-AUC of the entry C[C@@H]1C[C@H](N)C[C@H](c2ccncc2NC(=O)c2ccc(F)c(-c3c(F)cccc3F)n2)C1 .
-0.644

In one line, give reported Z-AUC of the entry Cc1cc(-n2c(=O)ccc3cnc4[nH]ccc4c32)ccc1F .
0.0709

In one line, give reported Z-AUC of the entry O=C(Nc1ccc(OC(F)(F)Cl)cc1)c1cnc(N2CC[C@@H](O)C2)c(-c2ccn[nH]2)c1 .
-0.874

In one line, give reported Z-AUC of the entry CCC1CCCCN1C(=O)n1ncc(C(O)(c2ccccc2)c2ccccc2)n1 (centres undefined) .
0.47

In one line, give reported Z-AUC of the entry COc1ccc2c(c1)C(c1ccc(F)cc1)=C(CN1CCCC1)CO2 .
0.0924

In one line, give reported Z-AUC of the entry CN1CCCN(C(=O)c2cccc(-c3ccc(/C=C4/C(=O)Nc5ccc(Cl)cc54)o3)c2)CC1 .
-0.436

In one line, give reported Z-AUC of the entry COC(=O)N(CC(=O)O)Cc1cccc(OCc2nc(-c3ccc(Cl)cc3)oc2C)c1 .
-0.00269

In one line, give reported Z-AUC of the entry COC(=O)[C@H]1[C@@H](O)[C@@]2(O)c3c(OC)cc(O[C@@H]4O[C@@H]([C@@H](O)CO)CO[C@H]4OC)cc3O[C@@]2(c2ccc(OC)cc2)[C@@H]1c1ccccc1 .
0.913

In one line, give reported Z-AUC of the entry C[C@H]1CNCCCN1S(=O)(=O)c1cccc2cncc(F)c12 .
-0.15

In one line, give reported Z-AUC of the entry CC#CC(=O)N1CC[C@@H](n2c(=O)n(-c3ccc(Oc4ccccc4)cc3)c3c(N)ncnc32)C1 .
0.828

In one line, give reported Z-AUC of the entry Cc1ncsc1-c1ccc([C@H](C)NC(=O)[C@@H]2C[C@@H](O)CN2C(=O)[C@@H](NC(=O)COCCCOCCNC(=O)C[C@@H]2N=C(c3ccc(Cl)cc3)c3c(sc(C)c3C)-n3c(C)nnc32)C(C)(C)C)cc1 .
-2.46

In one line, give reported Z-AUC of the entry CO[C@H]1/C=C/O[C@@]2(C)Oc3c(C)c(O)c4c(O)c(c(/C=N\N5CCN(C6CCCC6)CC5)c(O)c4c3C2=O)NC(=O)/C(C)=C\C=C\[C@H](C)[C@H](O)[C@@H](C)[C@@H](O)[C@@H](C)[C@H](OC(C)=O)[C@@H]1C .
-0.895

In one line, give reported Z-AUC of the entry Cn1ncc(NC(=O)c2nc(-c3c(F)cccc3F)sc2N)c1N1CC[C@@H](N)[C@H](F)CC1 .
0.956

In one line, give reported Z-AUC of the entry c1ccc(CNCc2ccc(CN3CCCNCCNCCCNCC3)cc2)nc1 .
1.27

In one line, give reported Z-AUC of the entry CN(C(=O)CNC(=O)/C=C/c1cccc(Cl)c1)C1CCS(=O)(=O)CC1 .
-0.958

In one line, give reported Z-AUC of the entry CCS(=O)(=O)c1ccc2oc(-c3ccc4ccccc4c3)nc2c1 .
-0.286

In one line, give reported Z-AUC of the entry CNCCCOc1cc(F)c(-c2c(Cl)nc3ncnn3c2N[C@@H](C)C(F)(F)F)c(F)c1 .
-1.35

In one line, give reported Z-AUC of the entry COC(=O)C1=C(C)NC(c2ncc(F)cc2F)=N[C@H]1c1ccc(F)cc1Cl .
0.182

In one line, give reported Z-AUC of the entry O=C(O)c1ccccc1-c1ccc(/C=c2\sc3nc4cc(Br)cnc4n3c2=O)o1 .
-0.865

In one line, give reported Z-AUC of the entry CC(C)NCCCn1c(Sc2cc(Cl)cc(Cl)c2)nc2c(N)ncnc21 .
-0.363

In one line, give reported Z-AUC of the entry C=CCNc1c(O)cc2c(O)c1C[C@@H](C)C[C@H](OC)[C@H](O)[C@@H](C)/C=C(/C)[C@H](OC(N)=O)[C@@H](OC)/C=C\C=C(\C)C(=O)N2 .
0.348

In one line, give reported Z-AUC of the entry CNc1nc(-c2ccc3c(N)n[nH]c3c2)cc(N2C[C@@H](C(=O)NC3CCCCC3)CC[C@H]2C)n1 .
0.449
